Quick list: melting point per entry.

Worked examples follow.
>>> value("Cc1nc(C)c(C(=O)OCC2CCCO2)c(-c2cccc([N+](=O)[O-])c2)c1C(=O)OCC1CCCO1.Cl (centres unmarked)")
"75 to 77 °C"
>>> value("COC(=O)c1c(C)nc(C)c(C(=O)OCC2CCC(=O)O2)c1-c1ccccc1[N+](=O)[O-] (centres unmarked) [Example 15]")
"132 to 134 °C"
>>> value("COC(=O)c1c(C)nc(C)c(C(=O)OCC2CCCO2)c1-c1cccc(NC(C)=O)c1.Cl (centres unmarked)")
"196 to 198 °C"
>>> value("COC(=O)c1c(C)nc(C)c(C(=O)OCC2CCCO2)c1-c1cccc(F)c1 (centres unmarked) [Example 3]")
"66 to 68 °C"

Item COC(=O)c1c(C)nc(C)c(C(=O)OCC2CCCO2)c1-c1cccc(O)c1.Cl (centres unmarked) has what recorded melting point? 95 to 97 °C
